# credit: patent US10457703B2

Biological target: UniProt:Q96RI1
Assay: Human FXR (NR1H4) Assay (Gal4 promoter driven luciferase reporter, Indigo Bioscience kit)
Assay type: cell-based
Conditions: read-out: Efficacy (%)
Recorded Emax, one value per entry.
Unit % implied. Number only.

Observe how each entry below is paired with its result.
CC[C@H]1[C@@H](O)[C@@H]2[C@H](CC[C@]3(C)[C@@H]([C@H](C)CCOC(=O)NC4CCS(=O)(=O)CC4)CC[C@@H]23)[C@@]2(C)CC[C@@H](O)C[C@@H]12; 321
CC[C@H]1[C@@H](O)[C@@H]2[C@H](CC[C@]3(C)[C@@H]([C@H](C)CCOC(=O)N[C@H]4CCCC[C@@H]4O)CC[C@@H]23)[C@@]2(C)CC[C@@H](O)C[C@@H]12; 302
CC[C@H]1[C@@H](O)[C@@H]2[C@H](CC[C@]3(C)[C@@H]([C@H](C)CCOC(=O)NS(=O)(=O)c4ccc5ccsc5c4)CC[C@@H]23)[C@@]2(C)CC[C@@H](O)C[C@@H]12; 213
CC[C@H]1[C@@H](O)[C@@H]2[C@H](CC[C@]3(C)[C@@H]([C@H](C)COC(=O)NS(=O)(=O)c4ccc(N5CCC5)cc4)CC[C@@H]23)[C@@]2(C)CC[C@@H](O)C[C@@H]12; 211

Let us examine a further case.
Qu. State its Emax for this molecule: CC[C@H]1[C@@H](O)[C@@H]2[C@H](CC[C@]3(C)[C@@H]([C@H](C)CCOC(=O)NCc4ccc(C(=O)O)cc4)CC[C@@H]23)[C@@]2(C)CC[C@@H](O)C[C@@H]12
Ans. 221

====

Target: human FXR (NR1H4) (Homo sapiens (Human))
Experiment: Human FXR (NR1H4) Assay (Gal4 promoter driven luciferase reporter, Indigo Bioscience kit)
Type: cell-based
Conditions: read-out: Efficacy (%)
The compounds listed here are annotated with their Emax.
Please reply with the bare figure in % and do not write the unit itself.

Below: 3 compounds and their reported Emax.
CCOC(=O)C1CCN(C(=O)OCC[C@@H](C)[C@H]2CC[C@H]3[C@@H]4[C@H](O)[C@H](CC)[C@@H]5C[C@H](O)CC[C@]5(C)[C@H]4CC[C@]23C)CC1; 247
CC[C@H]1[C@@H](O)[C@@H]2[C@H](CC[C@]3(C)[C@@H]([C@H](C)CCOC(=O)NCCCCCO)CC[C@@H]23)[C@@]2(C)CC[C@@H](O)C[C@@H]12; 228
CCCCS(=O)(=O)NC(=O)OCC[C@@H](C)[C@H]1CC[C@H]2[C@@H]3[C@H](O)[C@H](CC)[C@@H]4C[C@H](O)CC[C@]4(C)[C@H]3CC[C@]12C; 392

Qu. Fill in Emax for record CC[C@H]1[C@@H](O)[C@@H]2[C@H](CC[C@]3(C)[C@@H]([C@H](C)CCOC(=O)NS(=O)(=O)N4CC(C)(C)C4)CC[C@@H]23)[C@@]2(C)CC[C@@H](O)C[C@@H]12
Ans. 289

Qu. Identify measured Emax corresponding to CC[C@H]1[C@@H](O)[C@@H]2[C@H](CC[C@]3(C)[C@@H]([C@H](C)CCOC(=O)N4CCC[C@@H](CO)C4)CC[C@@H]23)[C@@]2(C)CC[C@@H](O)C[C@@H]12
Ans. 310

====

Target: human FXR (NR1H4) (Homo sapiens (Human), UniProt Q96RI1)
Sequence (Q96RI1 whole entry, the tested form may be a part): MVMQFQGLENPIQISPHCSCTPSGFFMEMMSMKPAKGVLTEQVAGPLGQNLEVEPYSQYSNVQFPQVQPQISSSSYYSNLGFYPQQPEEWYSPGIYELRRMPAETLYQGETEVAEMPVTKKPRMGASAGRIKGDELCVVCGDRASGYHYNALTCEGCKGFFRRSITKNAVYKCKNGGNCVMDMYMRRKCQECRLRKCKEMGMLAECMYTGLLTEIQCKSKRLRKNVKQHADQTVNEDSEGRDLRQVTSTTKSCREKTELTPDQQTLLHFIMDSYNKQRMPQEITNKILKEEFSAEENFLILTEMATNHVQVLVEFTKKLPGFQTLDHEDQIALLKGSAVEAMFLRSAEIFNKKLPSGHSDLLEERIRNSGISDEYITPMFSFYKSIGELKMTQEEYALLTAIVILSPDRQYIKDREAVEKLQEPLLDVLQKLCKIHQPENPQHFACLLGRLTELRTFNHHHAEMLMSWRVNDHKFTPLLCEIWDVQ
Assay: Human FXR (NR1H4) Assay (Gal4 promoter driven luciferase reporter, Indigo Bioscience kit);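 also: 100% equals the efficacy of CDCA; efficacy normalized to CDCA set as 100%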
Assay type: cell-based
Conditions: read-out: Efficacy (%)
readout_label: Emax (%)
// note: answer is a bare numeric in %

CC[C@H]1[C@@H](O)[C@@H]2[C@H](CC[C@]3(C)[C@@H]([C@H](C)CCCOC(=O)NS(=O)(=O)C(C)(C)C)CC[C@@H]23)[C@@]2(C)CC[C@@H](O)C[C@@H]12 [Example 117]; 365

// switching to the query compound
Qu. Please report Emax for the following compound: CC[C@H]1[C@@H](O)[C@@H]2[C@H](CC[C@]3(C)[C@@H]([C@H](C)CCOC(=O)N[C@H](C(=O)OC)C(C)C)CC[C@@H]23)[C@@]2(C)CC[C@@H](O)C[C@@H]12 [Example 154]
Ans. 138
